For each entry below, report its %Inh value.
- System: FGFR1;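 note: KINOMEscan kinase panel screen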
- details: concentration: 1 μM, replicates: in singlicate; n = 1
Answers are plain numbers, in %.

FC(F)(F)c1ccc(-c2ncn(CCCN3CCOCC3)c2-c2ccncc2)cc1 | 90

Could you report %Inh for every entry in the following list?
1. Cc1ccc(-c2ccc3c(ccc4sc5c(c43)NC[C@@H](C)N=C5N(C)C)n2)cn1
2. Cl.c1ccc(Cn2cnc3cc(Nc4ncnc5ccccc45)ccc32)cc1
3. CC(C)(C)c1ccc(C(=O)Nc2cn3cc(-c4ccccc4)ccc3n2)cc1
4. CCCNC(=O)Nc1ccc(Oc2ncnc3ccn(C)c23)cc1
5. O=C(Nc1n[nH]c2nc(-c3ccccc3)c(Br)cc12)C1CC1
6. Cl.NS(=O)(=O)c1cccc(Nc2cc(-c3ccc(F)cc3)n[nH]2)c1
7. O=C(NCc1cccs1)c1cc(C(=O)c2c(Cl)cccc2Cl)c[nH]1

1: 0; 2: 0; 3: 0; 4: 8; 5: 14; 6: 0; 7: 0

Okay, here is my list. What is %Inh for each of these?
1. Nc1ncnc2c1ncn2-c1cccc2ccccc12
2. COc1ccc(-c2cc3c(C)nc(N)nc3n([C@H]3CC[C@H](O)CC3)c2=O)cn1
3. COc1cc(Nc2ccnc3ccc(C(F)(F)F)cc23)cc(OC)c1OC
4. CCc1nc(-c2cccc(C)c2)c(-c2ccncc2)s1

12
0
16
0

For `CN1C(=O)C(Nc2ccccc2)=C(c2ccccc2)C1=O` the compound record lists %Inh as 0

Attribution: paper PMC5540273
